// provenance: patent US20060241051A1

# TESTED ON: T1, human OT7T175 (metastin receptor) (human, UniProt Q969F8 1-398)
# T1 construct: expressed on CHO cells (hOT7T175-expressed CHO cells; hOT7T175/CHO); also called hOT7T175; h0T7T175
# T1 sequence (Q969F8 whole entry L364H): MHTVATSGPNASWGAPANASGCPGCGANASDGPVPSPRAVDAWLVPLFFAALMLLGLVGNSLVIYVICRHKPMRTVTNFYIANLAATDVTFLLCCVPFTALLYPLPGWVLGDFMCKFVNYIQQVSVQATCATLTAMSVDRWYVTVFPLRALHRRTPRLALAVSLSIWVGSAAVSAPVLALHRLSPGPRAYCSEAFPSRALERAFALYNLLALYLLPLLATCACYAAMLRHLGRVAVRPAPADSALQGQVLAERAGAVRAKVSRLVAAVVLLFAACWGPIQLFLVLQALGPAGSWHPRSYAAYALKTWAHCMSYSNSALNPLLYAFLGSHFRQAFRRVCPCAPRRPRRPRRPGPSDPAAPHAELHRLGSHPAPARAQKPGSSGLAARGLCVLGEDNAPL
# PROTOCOL DESCRIPTION: FMAT competition with Cy-5-labeled metastin (40-54), hOT7T175-expressed CHO cells
Square brackets hold non-standard residues; d marks the D form. Ends that are not written are not given here. Arg(Me) = CNC(=N)NCCC[C@H](N)C(=O)O; d3Pal = N[C@H](Cc1cccnc1)C(=O)O; Cha = N[C@@H](CC1CCCCC1)C(=O)O; azaGly = NNC(=O)O
# IC50 annotations
Quick reminder: number only, in nM, skip the unit.

[d3Pal][dY][Cha]NSF[azaGly]L[Arg(Me)]F-NH2 (N-terminus assumed; SMILES CNC(=N)NCCC[C@H](NC(=O)[C@H](CC(C)C)NC(=O)NNC(=O)[C@H](Cc1ccccc1)NC(=O)[C@H](CO)NC(=O)[C@H](CC(N)=O)NC(=O)[C@H](CC1CCCCC1)NC(=O)[C@@H](Cc1ccc(O)cc1)NC(=O)[C@H](N)Cc1cccnc1)C(=O)N[C@@H](Cc1ccccc1)C(N)=O) [Compound No. 291: [D-Pya(3)1,D-Tyr2,Cha3,AzaGly7,Arg(Me)9]MS10]; 0.41

Item under review: [dY]NWNSFAL[Arg(Me)]F-NH2 (N-terminus assumed; SMILES CNC(=N)NCCC[C@H](NC(=O)[C@H](CC(C)C)NC(=O)[C@H](C)NC(=O)[C@H](Cc1ccccc1)NC(=O)[C@H](CO)NC(=O)[C@H](CC(N)=O)NC(=O)[C@H](Cc1c[nH]c2ccccc12)NC(=O)[C@H](CC(N)=O)NC(=O)[C@H](N)Cc1ccc(O)cc1)C(=O)N[C@@H](Cc1ccccc1)C(N)=O, printed structure is the same as that of Compound No. 173) [Compound No. 204: [D-Tyr1, Ala7, Arg(Me)9]MS10] . Reported IC50? 680
